Test system: rodent lifetime carcinogenesis bioassay, tumor incidence TD50
Experiment: carcinogenic potency in animals, long-term in vivo studies, CPDB compilation (AID 1745844)
Conditions: rat; strain Fischer 344; females; in feed; site: multiple organs + spleen; lesion: fibrosarcoma + sarcoma, NOS; dosed 103 weeks; study length 107 weeks

{"columns": ["Entry Smiles", "TD50"],
 "data": [
  ["Nc1ccccc1", "1740 mg/kg/day"]
]}

* * *

Tested on: rodent lifetime carcinogenesis bioassay, tumor incidence TD50
Assay: carcinogenic potency in animals, long-term in vivo studies, CPDB compilation (AID 1745844)
Conditions: rat; strain Sprague-Dawley; females; in feed; site: mammary gland; lesion: adenofibroma; dosed 46 weeks; study length 60 weeks

{"columns": ["Entry Smiles", "TD50"],
 "data": [
  ["CN(C)N=Nc1nc[nH]c1C(N)=O", "0.71 mg/kg/day"]
]}

* * *

System: rodent lifetime carcinogenesis bioassay, tumor incidence TD50
Assay: carcinogenic potency in animals, long-term in vivo studies, CPDB compilation (AID 1745844)
Details: mouse; strain Swiss; females; inhaled; site: liver; lesion: hepatoma; dosed 78 weeks; study length 104 weeks
The source made the active and inactive calls. How the calls were made is not given here.

{"columns": ["Entry Smiles", "Target Entity", "TD50"],
 "data": [
  ["C=CC", "rodent lifetime carcinogenesis bioassay, tumor incidence TD50", "286000 mg/kg/day (inactive)"]
]}

* * *

Tested on: rodent lifetime carcinogenesis bioassay, tumor incidence TD50
Test: carcinogenic potency in animals, long-term in vivo studies, CPDB compilation (AID 1745844)
Details: mouse; strain Charles River CD1; females; inhaled; site: liver; lesion: hemangiosarcoma; dosed 67 weeks; study length 74 weeks
Readout: TD50

{"columns": ["Entry Smiles", "Result"],
 "data": [
  ["C=CF", "25.4 mg/kg/day"]
]}

* * *

Test system: rodent lifetime carcinogenesis bioassay, tumor incidence TD50
Assay: carcinogenic potency in animals, long-term in vivo studies, CPDB compilation (AID 1745844)
Details: mouse; strain B6C3F1; females; inhaled; site: all sites; lesion: hemangioma; dosed 104 weeks; study length 104 weeks

{"columns": ["Entry Smiles", "TD50"],
 "data": [
  ["C=CC(=C)Cl", "134 mg/kg/day"]
]}

* * *

System: rodent lifetime carcinogenesis bioassay, tumor incidence TD50
Assay: carcinogenic potency in animals, long-term in vivo studies, CPDB compilation (AID 1745844)
Conditions: rat; strain Wistar-random; males; in feed; site: urinary bladder; lesion: transitional-cell carcinoma; dosed 78 weeks; study length 78 weeks
Readout: TD50 (mg/kg/day)

{"columns": ["Entry Smiles", "Target Entity", "Readout", "Recorded Number"],
 "data": [
  ["O=C(O)O", "rodent lifetime carcinogenesis bioassay, tumor incidence TD50", "TD50", 12900]
]}

* * *

Tested on: rodent lifetime carcinogenesis bioassay, tumor incidence TD50
Assay: carcinogenic potency in animals, long-term in vivo studies, CPDB compilation (AID 1745844)
Details: mouse; strain Charles River CD1; males; in drinking water; site: any site (literature study); lesion: several types; types named in the paper; dosed 119 weeks; study length 119 weeks
Active and inactive are the calls of the source. No rule for the calls is given here.

{"columns": ["Entry Smiles", "Target Entity", "TD50"],
 "data": [
  ["[Cl][Hg][Cl]", "rodent lifetime carcinogenesis bioassay, tumor incidence TD50", "3.2 mg/kg/day (inactive)"]
]}

* * *

Test system: rodent lifetime carcinogenesis bioassay, tumor incidence TD50
Experiment: carcinogenic potency in animals, long-term in vivo studies, CPDB compilation (AID 1745844)
Conditions: rat; strain Charles River CD (Sprague-Dawley); females; by gavage; site: vagina; lesion: squamous-cell carcinoma; dosed 95 weeks; study length 95 weeks

{"columns": ["Entry Smiles", "TD50"],
 "data": [
  ["Cc1cn([C@H]2C[C@H](N=[N+]=[N-])[C@@H](CO)O2)c(=O)[nH]c1=O", "11600 mg/kg/day"]
]}

* * *

Tested on: rodent lifetime carcinogenesis bioassay, tumor incidence TD50
Assay: carcinogenic potency in animals, long-term in vivo studies, CPDB compilation (AID 1745844)
Details: rat; strain Fischer 344; females; by gavage; site: liver; lesion: cholangiocarcinoma; dosed 103 weeks; study length 104 weeks

{"columns": ["Entry Smiles", "TD50"],
 "data": [
  ["c1ccoc1", "0.395 mg/kg/day"]
]}

* * *

System: rodent lifetime carcinogenesis bioassay, tumor incidence TD50
Assay: carcinogenic potency in animals, long-term in vivo studies, CPDB compilation (AID 1745844)
Details: rat; strain Wistar-random; females; inhaled; site: any site (literature study); lesion: several types; types named in the paper; dosed 104 weeks; study length 104 weeks
The source made the active and inactive calls. No rule for the calls is given here.
Readout: TD50

{"columns": ["Entry Smiles", "Result"],
 "data": [
  ["C=CC(=C)Cl", "37.4 mg/kg/day (inactive)"]
]}

* * *

System: rodent lifetime carcinogenesis bioassay, tumor incidence TD50
Test: carcinogenic potency in animals, long-term in vivo studies, CPDB compilation (AID 1745844)
Conditions: rat; strain Fischer 344; females; inhaled; site: mammary gland; lesion: carcinoma + fibroadenoma; dosed 103 weeks; study length 104 weeks
Activity calls are given as the source filed them. The rule behind the calls is not given here.
Readout: TD50

{"columns": ["Entry Smiles", "Readout", "Result"],
 "data": [
  ["CC#N", "TD50", "11.5 mg/kg/day (inactive)"]
]}

* * *

System: rodent lifetime carcinogenesis bioassay, tumor incidence TD50
Assay: carcinogenic potency in animals, long-term in vivo studies, CPDB compilation (AID 1745844)
Details: rat; strain Fischer 344; males; by gavage; site: pancreas; lesion: adenoma + acinar-cell adenoma + acinar-cell adenocarcinoma; dosed 94 weeks; study length 104 weeks
Readout: TD50

{"columns": ["Entry Smiles", "Readout", "Result"],
 "data": [
  ["ClCC(Cl)CCl", "TD50", "1.65 mg/kg/day"]
]}

* * *

Tested on: rodent lifetime carcinogenesis bioassay, tumor incidence TD50
Experiment: carcinogenic potency in animals, long-term in vivo studies, CPDB compilation (AID 1745844)
Settings: mouse; strain B6C3F1; males; inhaled; site: liver; lesion: hepatoma; dosed 78 weeks; study length 135 weeks

{"columns": ["Entry Smiles", "TD50"],
 "data": [
  ["ClC=C(Cl)Cl", "4530 mg/kg/day"]
]}

* * *

Test system: rodent lifetime carcinogenesis bioassay, tumor incidence TD50
Assay: carcinogenic potency in animals, long-term in vivo studies, CPDB compilation (AID 1745844)
Conditions: rat; strain Charles River CD (Sprague-Dawley); males; by gavage; site: stomach; lesion: squamous-cell carcinoma; dosed 104 weeks; study length 104 weeks

{"columns": ["Entry Smiles", "TD50 [mg/kg/day]"],
 "data": [
  ["CC(C)n1c(/C=C/[C@H](O)C[C@H](O)CC(=O)O)c(-c2ccc(F)cc2)c2ccccc21", 919]
]}

* * *

Test system: rodent lifetime carcinogenesis bioassay, tumor incidence TD50
Test: carcinogenic potency in animals, long-term in vivo studies, CPDB compilation (AID 1745844)
Details: rat; strain Fischer 344; females; in feed; site: liver; lesion: hepatocellular adenoma; dosed 40 weeks; study length 66 weeks
Readout: TD50 (mg/kg/day)

{"columns": ["Entry Smiles", "Target Entity", "Readout", "Unit Spec", "Recorded Number"],
 "data": [
  ["Nc1c(Br)cc(Br)c2c1C(=O)c1ccccc1C2=O", "rodent lifetime carcinogenesis bioassay, tumor incidence TD50", "TD50", "mg/kg/day", 191]
]}

* * *

System: rodent lifetime carcinogenesis bioassay, tumor incidence TD50
Assay: carcinogenic potency in animals, long-term in vivo studies, CPDB compilation (AID 1745844)
Conditions: rat; strain Fischer 344; females; in feed; site: liver; lesion: hepatocellular adenoma + hepatocellular carcinoma + neoplastic nodule; dosed 13 weeks; study length 13 weeks
Reported TD50 values for the following compounds.

{"columns": ["Entry Smiles", "TD50 [mg/kg/day]"],
 "data": [
  ["Nc1cc(S(=O)(=O)O)cc2cc(S(=O)(=O)O)c(N=Nc3ccc(-c4ccc(N=Nc5c(S(=O)(=O)O)cc6cc(S(=O)(=O)O)cc(N)c6c5O)cc4)cc3)c(O)c12", 3.21],
  ["Nc1ccc(N=Nc2ccc(-c3ccc(N=Nc4c(S(=O)(=O)O)cc5cc(S(=O)(=O)O)c(N=Nc6ccccc6)c(O)c5c4N)cc3)cc2)c(N)c1", 2.61],
  ["O=C([O-])c1cc(N=Nc2ccc(-c3ccc(N=Nc4c(O)ccc(N=Nc5cc(S(=O)(=O)[O-])ccc5[O-])c4[O-])cc3)cc2)ccc1O.[Cu+2].[Na+].[Na+]", 2.07]
]}

* * *

System: rodent lifetime carcinogenesis bioassay, tumor incidence TD50
Test: carcinogenic potency in animals, long-term in vivo studies, CPDB compilation (AID 1745844)
Details: mouse; strain B6C3F1; males; inhaled; site: thyroid gland; lesion: follicular-cell adenoma; dosed 95 weeks; study length 95 weeks

{"columns": ["Entry Smiles", "Unit Spec", "TD50"],
 "data": [
  ["FC(F)=C(F)F", "mg/kg/day", 1440]
]}

* * *

Tested on: rodent lifetime carcinogenesis bioassay, tumor incidence TD50
Experiment: carcinogenic potency in animals, long-term in vivo studies, CPDB compilation (AID 1745844)
Settings: mouse; strain NMRI; females; inhaled; site: kidney; lesion: cystadenoma; dosed 78 weeks; study length 119 weeks

{"columns": ["Entry Smiles", "TD50"],
 "data": [
  ["ClC#CCl", "1.08 mg/kg/day"]
]}
